# system-tested: UniProtKB Q2M2I8
# Sequence (Q2M2I8 whole entry): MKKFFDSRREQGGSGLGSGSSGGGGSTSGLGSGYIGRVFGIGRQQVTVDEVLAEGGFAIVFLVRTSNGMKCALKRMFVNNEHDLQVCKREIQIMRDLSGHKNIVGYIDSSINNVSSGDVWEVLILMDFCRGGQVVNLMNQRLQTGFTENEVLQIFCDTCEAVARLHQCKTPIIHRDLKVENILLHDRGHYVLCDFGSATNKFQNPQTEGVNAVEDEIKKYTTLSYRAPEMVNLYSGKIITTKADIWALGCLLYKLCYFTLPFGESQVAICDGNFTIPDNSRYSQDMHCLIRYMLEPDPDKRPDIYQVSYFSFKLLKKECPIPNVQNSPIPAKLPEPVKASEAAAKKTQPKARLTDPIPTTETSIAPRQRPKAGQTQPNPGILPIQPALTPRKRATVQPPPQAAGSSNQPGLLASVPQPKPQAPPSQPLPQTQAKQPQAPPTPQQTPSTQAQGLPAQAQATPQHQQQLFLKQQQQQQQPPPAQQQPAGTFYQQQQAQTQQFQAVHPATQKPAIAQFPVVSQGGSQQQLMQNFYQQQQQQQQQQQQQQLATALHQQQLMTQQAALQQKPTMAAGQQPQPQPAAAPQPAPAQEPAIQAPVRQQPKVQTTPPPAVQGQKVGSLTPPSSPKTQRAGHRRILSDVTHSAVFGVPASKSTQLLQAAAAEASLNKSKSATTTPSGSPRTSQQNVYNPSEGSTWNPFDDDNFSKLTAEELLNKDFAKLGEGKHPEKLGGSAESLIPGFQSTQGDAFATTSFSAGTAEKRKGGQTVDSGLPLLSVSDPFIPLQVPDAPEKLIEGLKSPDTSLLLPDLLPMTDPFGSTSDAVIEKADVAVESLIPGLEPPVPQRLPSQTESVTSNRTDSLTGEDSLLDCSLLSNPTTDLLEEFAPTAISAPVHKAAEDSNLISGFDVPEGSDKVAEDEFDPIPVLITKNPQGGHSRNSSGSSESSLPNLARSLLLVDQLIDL
# measurement-notes: pAP2M1 cell-based assay (in-cell Western)
# condition-summary: Hela cells co-transfected with AP2M1 and AAK1, 3 hr treatment; class symbols; read-out: AAK1 In-cell Western: IC50
pIC50: −log10 of the molar value.
Provide the reported pIC50 of each item.

Please report the recorded pIC50 for `Clc1cnn2ccc(N3CCNCC3)nc12` . < 5.82

# get_value(readout='pIC50', item= `O=C1C[C@@H](OC(=O)N2CCN(c3ccn4ncc(-c5cccnc5OC5CC5)c4n3)CC2)CN1` ) 5.82 to 6.30

Can you look up the measured pIC50 of `COc1ccccc1-c1cnn2ccc(N3CCN(C(=O)O[C@H]4CO[C@H]5OCC[C@H]54)CC3)nc12` for me? 5.82 to 6.30

Requested field: pIC50. Item: `O=C(O[C@@H]1CC(=O)N(C2CCNCC2)C1)N1CCN(c2ccn3ncc(-c4cccnc4OC4CC4)c3n2)CC1` < 5.82

What does the record list as pIC50 for `COc1ncccc1-c1cnn2ccc(NCCN(C)C(=O)O[C@H]3CO[C@H]4OCC[C@H]43)nc12` ? 5.82 to 6.30

I would be grateful if you could share the reported pIC50 for `CN1C[C@@H](OC(=O)N2CCN(c3ccn4ncc(-c5cc(OC(F)(F)F)cnc5OC5CC5)c4n3)CC2)CC1=O` . < 5.82

Could you tell me which pIC50 is on file for `C#C[C@]1(OC(=O)N2CCN(c3ccn4ncc(-c5cccnc5OC5CC5)c4n3)CC2)CCNC1` ? 6.82 to 7.29

* * *

Exercise: for every item that follows, state its recorded pIC50.
# system-tested: GAK (amino acids Q25-N335) (Homo sapiens, UniProt O14976)
# Construct: against GAK (amino acids Q25-N335); 6His (N, cleaved yes)
# Sequence (O14976 25-335): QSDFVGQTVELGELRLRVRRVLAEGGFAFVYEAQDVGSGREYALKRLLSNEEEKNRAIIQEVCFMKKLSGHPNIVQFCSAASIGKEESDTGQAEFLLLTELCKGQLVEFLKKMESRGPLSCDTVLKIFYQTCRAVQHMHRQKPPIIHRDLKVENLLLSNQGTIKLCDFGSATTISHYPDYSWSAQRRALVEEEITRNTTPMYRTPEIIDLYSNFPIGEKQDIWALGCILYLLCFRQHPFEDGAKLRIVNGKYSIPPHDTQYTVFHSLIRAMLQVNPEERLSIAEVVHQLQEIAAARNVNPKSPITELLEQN
# measurement-notes: GAK pSENs assay
# Format: biochemical
# condition-summary: class symbols; read-out: GAK pSENs:IC50
pIC50: −log10 of the molar value.

Please report the recorded pIC50 for C#C[C@]1(OC(=O)N2CCN(c3ccn4ncc(-c5cccnc5OC5CC5)c4n3)CC2)CCNC1 [Compound I-15] . 6.30 to 6.82

Consider the compound COc1ncccc1-c1cnn2ccc(NCCN(C)C(=O)O[C@H]3CO[C@H]4OCC[C@H]43)nc12 [Compound I-70] and give its measured pIC50. 5.82 to 6.30

Any idea what pIC50 was measured for CN(CCNc1ccn2ncc(-c3cccnc3OC3CC3)c2n1)C(=O)O[C@]1(C)CCNC1 [Compound I-61] ? 6.30 to 6.82

Would you mind telling me what pIC50 value was observed for CC(C)(C)OC(=O)NCCNc1ccc2ncc(-c3cccnc3OC3CC3)n2n1 [Compound I-129] ? 6.30 to 6.82

Quick one: pIC50 of CN1C[C@@H](OC(=O)N2CCN(c3ccn4ncc(-c5cccnc5O)c4n3)CC2)CC1=O [Compound I-98] ? < 5.82

Quick check: pIC50 of CC(C)Oc1ncccc1-c1cnn2ccc(N3CCN(C(=O)OC4(C)CCNC4)CC3)nc12 (stereo not shown) [Compound I-21-5] ? 6.30 to 6.82

# input compound: CC(C)Oc1ncccc1-c1cnn2ccc(N3CCN(C(=O)O[C@]4(C)CCNC4)CC3)nc12 [Compound I-22] ; wanted: its pIC50 6.82 to 7.29

# query: pIC50 of entry Clc1cnn2ccc(N3CCNCC3)nc12 [Compound I-104] < 5.82

What measured pIC50 goes with CN(CCNc1ccn2ncc(-c3cccnc3OC3CC3)c2n1)C(=O)O[C@H]1CO[C@H]2OCC[C@H]21 [Compound I-71] ? 5.82 to 6.30

Bench note: what pIC50 did CC1(OC(=O)N2CCN(c3ccn4ncc(-c5cccnc5OCC5COC5)c4n3)CC2)COC1 [Compound I-20] show? 5.82 to 6.30

Which pIC50 value is on record for COc1ncccc1-c1cnn2ccc(N3CCN(C(=O)OC4CCNC4)CC3)nc12 (stereo not shown) [Compound I-5] ? 5.82 to 6.30

Query (compound): C#CC1(OC(=O)N2CCN(c3ccn4ncc(-c5cccnc5OC5CC5)c4n3)CC2)CCNC1 (stereo not shown) [Compound I-16-7] ; field requested: pIC50 6.82 to 7.29

Could you share which pIC50 value was measured for C#C[C@@]1(OC(=O)N2CCN(c3ccn4ncc(-c5cccnc5OC5CC5)c4n3)CC2)CCNC1 [Compound I-16] ? 6.82 to 7.29

Report pIC50 for CN(CCNc1ccn2ncc(-c3cccnc3OC3CC3)c2n1)C(=O)OC(C)(C)C [Compound I-12] please. 5.82 to 6.30

Which pIC50 value is on record for CC(C)(C)OC(=O)N1CCN(c2ccn3ncc(-c4cccnc4O)c3n2)CC1 [Compound I-102] ? < 5.82

Return reported pIC50; argument: CC(C)(C)OC(=O)N1CCN(c2ccn3ncc(Cl)c3n2)CC1 [Compound I-100] < 5.82

Value lookup for pIC50; key = CC1(OC(=O)N2CCN(c3ccn4ncc(-c5cccc(C(N)=O)c5)c4n3)CC2)COC1 [Compound I-4] 5.82 to 6.30

Name the reported pIC50 value associated with the compound COc1ncccc1-c1cnn2ccc(N3CCN(C(=O)OC4(C)CCNC4)CC3)nc12 (stereo not shown) [Compound I-8] 6.30 to 6.82

Would you mind telling me what pIC50 value was observed for COc1cnc(OC2CC2)c(-c2cnn3ccc(N4CCN(C(=O)O[C@H]5CC(=O)N(C)C5)CC4)nc23)c1 [Compound I-87] ? 5.82 to 6.30

Returns the measured pIC50 for the input compound. Input: Oc1ncccc1-c1cnn2ccc(N3CCNCC3)nc12 [Compound I-106] < 5.82

If you can, please state the reported pIC50 value of O=C1C[C@H](OC(=O)N2CCN(c3ccn4ncc(-c5cccnc5NC5CC5)c4n3)CC2)CN1 [Compound I-45] . < 5.82

Quick one: pIC50 of CC(C)(C)OC(=O)NCCNc1nc2c(-c3cccnc3OC3CC3)cnn2cc1F [Compound I-124] ? 5.82 to 6.30

Need pIC50, item O=C1C[C@H](OC(=O)N2CCN(c3ccn4ncc(-c5cccnc5NC5CCC5)c4n3)CC2)CN1 [Compound I-46] 5.82 to 6.30

Which measured pIC50 value corresponds to CC(C)(C)OC(=O)N1CCC(N2C[C@H](OC(=O)N3CCN(c4ccn5ncc(-c6cccnc6OC6CC6)c5n4)CC3)CC2=O)CC1 [Compound I-31] ? 5.82 to 6.30

What value of measured pIC50 is listed for O=C(O[C@H]1CO[C@H]2OCC[C@H]21)N1CCN(c2ccn3ncc(-c4cnccn4)c3n2)CC1 [Compound I-66] ? 5.82 to 6.30

State the recorded pIC50 for this entry: CN1C[C@@H](OC(=O)N2CCN(c3ccn4ncc(Cl)c4n3)CC2)CC1=O [Compound I-96] < 5.82

Fill in: pIC50 of C[C@@]1(OC(=O)N[C@H]2CCN(c3ccn4ncc(-c5cccnc5OC5CC5)c4n3)C2)CCNC1 [Compound I-57] is ___ 5.82 to 6.30

May I ask what pIC50 has been recorded for CN1C[C@@H](OC(=O)N2CCN(c3ccn4ncc(-c5cc(OC(F)(F)F)cnc5OC5CC5)c4n3)CC2)CC1=O [Compound I-88] ? 5.82 to 6.30

# query: pIC50 of entry CN1C[C@@H](OC(=O)N2CCN(c3ccn4nccc4n3)CC2)CC1=O [Compound I-97] < 5.82

I'd like to know its pIC50. The compound in question is CC1(OC(=O)N2CCN(c3ccn4ncc(-c5cccnc5OC5CC5)c4n3)CC2)CCNC1 (stereo not shown) [Compound I-13-5] 6.30 to 6.82

Which pIC50 value is on record for C[C@@]1(OC(=O)N2CCN(c3ccn4ncc(-c5cccnc5OC5CC5)c4n3)CC2)CCNC1 [Compound I-14] ? 5.82 to 6.30

* * *

# system-tested: GAK (amino acids Q25-N335) (Homo sapiens)
# Construct: against GAK (amino acids Q25-N335); 6His (N, cleaved yes)
# measurement-notes: GAK pSENs assay
# Type: biochemical
# condition-summary: class symbols; read-out: GAK pSENs:IC50
Assignment: determine reported IC50 for the given compounds.

Item `O=C1C[C@H](OC(=O)N2CCN(c3ccn4ncc(-c5cccnc5OC5CC5)c4n3)CC2)CN1CCOCc1ccccc1` has what recorded IC50? 501 to 1500 nM

Name the recorded IC50 for `[2H]C([2H])([2H])N1C[C@@H](OC(=O)N2CCN(c3nc4c(-c5cc(OC)cnc5OC5CC5)cnn4cc3F)CC2)CC1=O` . 501 to 1500 nM

Query (compound): `C[C@@]1(OC(=O)N2CCN(c3ccn4ncc(-c5cccnc5OC5CC5)c4n3)CC2)CCN(CC(N)=O)C1` ; field requested: IC50 501 to 1500 nM

// IC50 lookup, key: `CC(C)Oc1ncccc1-c1cnn2ccc(N3CCN(C(=O)O[C@@]4(C)CCNC4)CC3)nc12` 501 to 1500 nM

I'd like to know its IC50. The compound in question is C#CC1(OC(=O)N2CCN(c3ccn4ncc(-c5cccnc5OC)c4n3)CC2)CCNC1 (stereo not drawn) 151 to 500 nM

Recorded IC50 of `CC1(OC(=O)N2CCN(c3ccn4ncc(-c5ccc(C(N)=O)cc5)c4n3)CC2)COC1` , please. 501 to 1500 nM
